biological target: unphosphorylated-BTK kinase domain (UP-BTK), GST-tagged human BTK (389-659aa) (Homo sapiens (Human)); test: BTK Kinase Lanthascreen Binding Assay; settings: compound, 50 nM Tracer 236, 2 nM anti-GST antibody, 60 minutes; pIC50 = negative log of the IC50 in molar
So basically: is BTK_I_binding pIC50 under 7? Then 1. Not under? Then -1.

Worked set:
compound	discrete label
C=CC(=O)N[C@H]1CCCC[C@H]1NC(=O)c1sc2nccc3c2c1NC(=O)N3c1ccc(Oc2ccccc2)cc1C (single isomer, unassigned)	-1
N[C@@H]1CC[C@H](NC(=O)c2sc3nccc4c3c2NC(=O)N4c2ccc(Oc3ccccc3)cc2)C1	1
C=CC(=O)N[C@H]1CCC[C@H]1NC(=O)c1sc2nccc3c2c1NC(=O)N3c1cccc(-c2ccccn2)c1	-1

### Prompt For C=CC(=O)N[C@H]1CC[C@@H](NC(=O)c2sc3nccc4c3c2NC(=O)N4c2ccc(Oc3ccccc3)cc2)C1 , is the recorded BTK_I_binding pIC50 below the cut-off of 7?
### Response 1

### Prompt For CN[C@@H]1CCCC[C@@H]1NC(=O)c1sc2nccc3c2c1NC(=O)N3c1ccc(Oc2ccccc2)cc1C , is the recorded BTK_I_binding pIC50 below the cut-off of 7?
### Response 1

### Prompt For C=CC(=O)N[C@@H]1CCCC[C@H]1NC(=O)c1sc2nccc3c2c1NC(=O)N3c1ccc(Oc2ccccc2)cn1 , is the recorded BTK_I_binding pIC50 below the cut-off of 7?
### Response 1

### Prompt For C=CC(=O)N[C@H]1CCC[C@H]1NC(=O)c1sc2nccc3c2c1NC(=O)N3c1ccc(Oc2ccccc2)cc1C (single isomer, unassigned) , is the recorded BTK_I_binding pIC50 below the cut-off of 7?
### Response -1

### Prompt For Cc1cc(Oc2ccccc2)ccc1N1C(=O)Nc2c(C(=O)N[C@@H]3CCC[C@H]3O)sc3nccc1c23 [Example 9] , is the recorded BTK_I_binding pIC50 below the cut-off of 7?
### Response -1

### Prompt For Cc1cc(Oc2ccccc2)ccc1N1C(=O)Nc2c(C(=O)N[C@@H]3CCC[C@@H]3NC(=O)CN)sc3nccc1c23 (single isomer, unassigned) , is the recorded BTK_I_binding pIC50 below the cut-off of 7?
### Response -1

### Prompt For N[C@H]1CCC[C@@H]1NC(=O)c1sc2nccc3c2c1NC(=O)N3c1ccc(Oc2ccccc2)cc1 , is the recorded BTK_I_binding pIC50 below the cut-off of 7?
### Response 1

====

Can you tell me BTK_I_binding pIC50 for the items I'm about to list?
biological target: unphosphorylated-BTK kinase domain (UP-BTK), GST-tagged human BTK (389-659aa) (Homo sapiens (Human), UniProt Q06187); assay: BTK Kinase Lanthascreen Binding Assay; conditions: compound, 50 nM Tracer 236, 2 nM anti-GST antibody, 60 minutes; pIC50 = negative log of the IC50 in molar
Sequence (Q06187 389-659): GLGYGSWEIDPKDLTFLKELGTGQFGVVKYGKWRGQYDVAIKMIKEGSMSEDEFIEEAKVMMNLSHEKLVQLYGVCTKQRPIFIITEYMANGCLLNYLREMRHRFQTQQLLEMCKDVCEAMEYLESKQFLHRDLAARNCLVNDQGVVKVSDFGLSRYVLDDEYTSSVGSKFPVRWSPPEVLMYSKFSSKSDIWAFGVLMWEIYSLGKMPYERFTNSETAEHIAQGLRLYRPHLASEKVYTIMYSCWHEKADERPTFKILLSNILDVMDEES
Answers are plain numbers.

Sample answers from the record:
compound	BTK_I_binding pIC50
O=C(N[C@H]1CCC[C@H](O)C1)c1sc2nccc3c2c1NC(=O)N3c1ccc(Oc2ccccc2)cc1 [Example 143]	6.75
Cc1cc(Oc2ccccc2)ccc1N1C(=O)Nc2c(C(=O)N[C@H]3CCC[C@@H]3N)sc3nccc1c23 (single isomer, unassigned) [Example 135]	6.82
CNCC(=O)N[C@@H]1CC[C@H](NC(=O)c2sc3nccc4c3c2NC(=O)N4c2ccc(Oc3ccccc3)cc2C)C1 (single isomer, unassigned) [Example 103]	7.40

For every item below, please supply its BTK_I_binding pIC50.
1. C=CC(=O)N[C@H]1CCCC[C@H]1NC(=O)c1sc2nccc3c2c1NC(=O)N3c1cccc(-c2ccccc2)c1 [Example 106]
2. Cc1cc(Oc2ccccc2)ccc1N1C(=O)Nc2c(C(=O)N[C@@H]3CCC[C@H]3N(C)C)sc3nccc1c23 [Example 29]

### Response
1: 8.06; 2: 6.81

For every item below, please supply its BTK_I_binding pIC50.
1. Cc1cc(Oc2ccccc2)ccc1N1C(=O)Nc2c(C(=O)N[C@@H]3CCCC[C@@H]3NC(=O)CN(C)C)sc3nccc1c23 (single isomer, unassigned) [Example 132]
2. C=CC(=O)N[C@H]1CCC[C@H]1NC(=O)c1sc2nccc3c2c1NC(=O)N3c1ccc(OC(C)C)cc1 [Example 205]
3. C=CC(=O)N[C@H]1CCCC[C@H]1NC(=O)c1sc2nccc3c2c1NC(=O)N3c1ccc(OC2CCC2)nc1C (single isomer, unassigned) [Example 204]
4. N[C@H]1CCCC[C@H]1NC(=O)c1sc2nccc3c2c1NC(=O)N3c1ccc(Oc2ccccc2)nc1 [Example 257]
5. CCC(=O)N[C@@H]1CC[C@H](NC(=O)c2sc3nccc4c3c2NC(=O)N4c2ccc(Oc3ccccc3)cc2C)C1 [Example 69]

### Response
7.27
7.62
8.03
6.47
7.73

====

molecular target: unphosphorylated-BTK kinase domain (UP-BTK), GST-tagged human BTK (389-659aa) (Homo sapiens (Human), UniProt Q06187); experiment: BTK Kinase Lanthascreen Binding Assay; settings: Lanthascreen binding, 60 minutes incubation; pIC50 = negative log of the IC50 in molar
value kind: BTK_I_binding pIC50
Answers are plain numbers.

compound	observed
CC(=O)N[C@H]1CCN(C(=O)c2sc3nccc4c3c2NC(=O)N4c2ccc(Oc3ccccc3)cc2C)C1 [Example 419]	5.79
C=CC(=O)N[C@H]1CCC[C@H]1NC(=O)c1sc2nccc3c2c1NC(=O)N3c1ccc(Oc2ccc(C)nc2)nc1C [Example 495]	6.63
Cc1cc(Oc2ccccc2)ccc1N1C(=O)Nc2c(C(=O)N3CC[C@H](N)C3)sc3nccc1c23 [Example 420]	5.73
C=CC(=O)N[C@@H]1CCC[C@@H](NC(=O)c2sc3nccc4c3c2NC(=O)N4c2cnc(Oc3ccccc3)cc2C)C1 (single isomer, unassigned) [Example 332]	6.60
Cc1cc(Oc2cccc(COc3ccccc3C#N)c2)ccc1N1C(=O)Nc2c(NC(=O)C3CC3)sc3nccc1c23 [Example 461]	6.46
O=C(NC1CCCCC1)c1sc2nccc3c2c1NC(=O)N3c1ccc(Oc2ccccc2)cc1 [Example 463]	6.22

For every item below, please supply its BTK_I_binding pIC50.
1. CC(=O)N[C@H]1CCC[C@@H](NC(=O)c2sc3nccc4c3c2NC(=O)N4c2cnc(Oc3ccccc3)cc2C)C1 (single isomer, unassigned) [Example 360]
2. C=CC(=O)N[C@H]1CCCC[C@H]1NC(=O)c1sc2nccc3c2c1NC(=O)N3c1ccc(Oc2ccccn2)cc1C [Example 401]
3. CC(=O)N[C@H]1CC[C@H](NC(=O)c2sc3nccc4c3c2NC(=O)N4c2cnc(Oc3ccccc3)cc2C)CC1 [Example 432]
4. C=CC(=O)N[C@H]1CCC[C@H]1NC(=O)c1sc2nccc3c2c1NC(=O)N3c1ccc(Oc2ccccn2)cn1 [Example 480]
5. CCC(=O)N[C@@H]1CC[C@@H](NC(=O)c2sc3nccc4c3c2NC(=O)N4c2cnc(Oc3ccccc3)cc2C)C1 (single isomer, unassigned) [Example 388]
6. C=CC(=O)N[C@@H]1CCC[C@H]1NC(=O)c1sc2nccc3c2c1NC(=O)N3c1ccc(Oc2ccccc2)nc1C (single isomer, unassigned) [Example 301]
7. C=CC(=O)N[C@H]1CCC[C@H]1NC(=O)c1sc2nccc3c2c1NC(=O)N3c1cnc(Oc2ncccn2)cc1C [Example 465]

### Response
1. 6.26
2. 6.39
3. 7.45
4. 7.59
5. 7.64
6. 7.97
7. 7.25

For every item below, please supply its BTK_I_binding pIC50.
1. CCC(=O)N[C@H]1CC[C@@H](NC(=O)c2sc3nccc4c3c2NC(=O)N4c2cnc(Oc3ccccc3)cc2C)C1 (single isomer, unassigned) [Example 361]
2. Cc1cc(Oc2ccccc2)ccc1N1C(=O)Nc2c(C(=O)N[C@@H]3CCCC[C@H]3N)sc3nccc1c23 (single isomer, unassigned) [Example 440]
3. C=CC(=O)N[C@H]1CCC[C@H]1NC(=O)c1sc2nccc3c2c1NC(=O)N3c1ccc(O[C@@H]2CCOC2)cc1C [Example 386]

### Response
[7.94, 7.07, 7.09]

For every item below, please supply its BTK_I_binding pIC50.
1. Cc1cc(Oc2cccc(COc3ccccc3C#N)c2)ccc1N1C(=O)Nc2c(C(=O)NC3CCCCC3)sc3nccc1c23 [Example 460]
2. CC(=O)N[C@H]1CC[C@H](NC(=O)c2sc3nccc4c3c2NC(=O)N4c2cnc(Oc3ccccc3)cc2C)C1 (single isomer, unassigned) [Example 395]
3. C=CC(=O)N[C@@H]1CCC[C@H]1NC(=O)c1sc2nccc3c2c1NC(=O)N3c1cnc(Oc2ccccc2)cn1 [Example 311]
4. CC(=O)N[C@H]1CC[C@@H](NC(=O)c2sc3nccc4c3c2NC(=O)N4c2cnc(Oc3ccccc3)cc2C)CC1 (single isomer, unassigned) [Example 389]
5. C=CC(=O)N[C@@H]1CCC[C@H]1NC(=O)c1sc2nccc3c2c1NC(=O)N3c1cnc(CC(C)C)cc1C (single isomer, unassigned) [Example 382]
6. CCC(=O)N[C@H]1CCC[C@H]1NC(=O)c1sc2nccc3c2c1NC(=O)N3c1ccc(Oc2ccccc2)nc1C (single isomer, unassigned) [Example 346]
7. C=CC(=O)N[C@H]1CCC[C@H]1NC(=O)c1sc2nccc3c2c1NC(=O)N3c1ccc(Oc2ccc(C)nc2)cc1C [Example 384]
8. C=CC(=O)N[C@@H]1CCCC[C@@H]1NC(=O)c1sc2nccc3c2c1NC(=O)N3c1ccc(Oc2ccccc2)cc1C (single isomer, unassigned) [Example 451]

### Response
6.78
6.66
7.57
7.30
7.68
6.07
7.54
6.40

### Prompt # query: BTK_I_binding pIC50 of entry C=CC(=O)N[C@@H]1CCC[C@@H](NC(=O)c2sc3nccc4c3c2NC(=O)N4c2ccc(Oc3ccccc3)cn2)C1 (relative stereo) [Example 344]
### Response 6.11
